System: TTR
Assay: TTR editing in primary human hepatocytes transfected with Spy Cas9 protein (RNP) loaded with dgRNAs (Table 8)
Assay type: cell-based
Details: dgRNA transfected with Spy Cas9 protein (RNP)
Param label: returns t when Avg % Insert < 20%, returns f otherwise, including exact equality.

• CCUCCUCUGCCUUGCUGGAC (tested as dual guide RNA, chemistry not given here) [CR003336] = f
• GCAUGGGCUCACAACUGAGG (tested as dual guide RNA, chemistry not given here) [CR003362] = t
• AGCCGUGGUGGAAUAGGAGU (tested as dual guide RNA, chemistry not given here) [CR005299] = t
• AGUGAGUCUGGAGAGCUGCA (tested as dual guide RNA, chemistry not given here) [CR003359] = f
• CAGAGGACACUUGGAUUCAC (tested as dual guide RNA, chemistry not given here) [CR003343] = f
• CCAGUCCAGCAAGGCAGAGG (tested as dual guide RNA, chemistry not given here) [CR003337] = f
• AAAGUUCUAGAUGCUGUCCG (tested as dual guide RNA, chemistry not given here) [CR003346] = t
• ACCUCUGCAUGCUCAUGGAA (tested as dual guide RNA, chemistry not given here) [CR003371] = t
